# System: CCRF-CEM
# protocol.details: NCI tumour cell line growth inhibition, 48 h
The source made the active and inactive calls. Cut-off read from the data, not from the text of the source: active = GI50 up to about 1.1 µM and inactive = higher.
Listing: GI50 of selected compounds

>>> meas_value("N#Cc1nc(-c2ccc(-c3nc(C#N)c(N)o3)cc2)oc1N")
"> 10 µM (inactive)"
>>> meas_value("c1ccc2c(c1)[n-]n1c3ccc4nonc4c3n[n+]21")
"> 100 µM (inactive)"
>>> meas_value("c1ccc2c(c1)CCN(C1=NCCO1)C2")
"> 10 µM (inactive)"
>>> meas_value("O=C(Nc1ccccc1)c1cc(S(=O)(=O)N2CCNNC2=O)c(S)cc1Cl")
"71.9 µM (inactive)"
>>> meas_value("CNc1nnc(CNc2ccc(-c3nnc(NC)n3N)cc2)n1N")
"> 100 µM (inactive)"

Endpoint output: GI50 of `CC1=[N+]([O-])c2ccccc2C(=O)C1=O` . Value?
25.9 µM (inactive)

Again, but for CCCN(CCC)c1c([N+](=O)[O-])cc(S(N)(=O)=O)cc1[N+](=O)[O-] [ORYZALIN]
16.8 µM (inactive)

Again, but for `CCCCI(O)OS(=O)(=O)c1ccc(C)cc1`
53.5 µM (inactive)

Again, but for `O=C(Nc1nc2ncn(CCI)c2c(=O)[nH]1)c1ccccc1`
> 100 µM (inactive)

Again, but for `N/C(=N\O)N/N=C/c1ccc(O)c(O)c1`
> 100 µM (inactive)

Again, but for `CCOC(=O)NC/C=C/CO`
> 100 µM (inactive)

Again, but for `C=Nc1ccc([N+](=O)[O-])cc1`
> 63.1 µM (inactive)
